Target: HLA-DR0901 protein (Homo sapiens, UniProt P01903+P01911, A100R/A103E/D57H/D86V/F55Y/F60I/F76Y/I96F/K127E/L162R/M171V/P40D/Q125H/Q99R/R33Q/R42F/S133A/S66N/T210M/V115G/W38K/Y107V/Y59G/Y89S)
Experiment: Peptide binding competition assay, DR0901
Residues, ends and D or L forms follow the SMILES beside them.

molecule	Kd / nM
CC[C@H](C)[C@H](NC(=O)[C@H](CCCCN)NC(=O)[C@H](CC(=O)O)NC(=O)[C@H](CC(C)C)NC(=O)[C@H](CC(C)C)NC(=O)[C@H](Cc1ccc(O)cc1)NC(=O)[C@H](CC(N)=O)NC(=O)[C@H](Cc1ccccc1)NC(=O)[C@H](CC(N)=O)NC(=O)[C@@H](N)CC(C)C)C(=O)N[C@H](C(=O)N[C@H](C(=O)N[C@@H](CC(=O)O)C(=O)O)C(C)C)[C@@H](C)CC [LNFNYLLDKIIVD] (H-LNFNYLLDKIIVD-OH)	3600
CC[C@H](C)[C@H](NC(=O)[C@H](CCCCN)NC(=O)[C@H](CC(=O)O)NC(=O)[C@H](CC(C)C)NC(=O)CNC(=O)[C@H](Cc1ccc(O)cc1)NC(=O)[C@H](CC(N)=O)NC(=O)[C@H](Cc1ccccc1)NC(=O)[C@H](CC(N)=O)NC(=O)[C@@H](N)CC(C)C)C(=O)N[C@H](C(=O)N[C@H](C(=O)N[C@@H](CC(=O)O)C(=O)O)C(C)C)[C@@H](C)CC [LNFNYGLDKIIVD] (H-LNFNYGLDKIIVD-OH)	38
CC[C@H](C)[C@H](NC(=O)[C@H](CCCCN)NC(=O)[C@H](CC(=O)O)NC(=O)[C@H](CC(C)C)NC(=O)[C@H](CO)NC(=O)[C@H](Cc1ccc(O)cc1)NC(=O)[C@H](CC(N)=O)NC(=O)[C@H](Cc1ccccc1)NC(=O)[C@H](CC(N)=O)NC(=O)[C@@H](N)CC(C)C)C(=O)N[C@@H](CC(N)=O)C(=O)N[C@H](C(=O)N[C@@H](CC(=O)O)C(=O)O)C(C)C [LNFNYSLDKINVD] (H-LNFNYSLDKINVD-OH)	2600
CC[C@H](C)[C@H](NC(=O)[C@H](CCCCN)NC(=O)[C@H](CC(=O)O)NC(=O)[C@H](CC(C)C)NC(=O)[C@H](CO)NC(=O)[C@H](Cc1ccc(O)cc1)NC(=O)[C@H](CC(N)=O)NC(=O)[C@H](Cc1ccccc1)NC(=O)[C@H](CC(N)=O)NC(=O)[C@@H](N)CC(C)C)C(=O)N[C@H](C(=O)N[C@H](C(=O)N[C@@H](CC(=O)O)C(=O)O)C(C)C)[C@@H](C)CC [LNFNYSLDKIIVD] (H-LNFNYSLDKIIVD-OH)	73
CC[C@H](C)[C@H](NC(=O)[C@H](CCSC)NC(=O)[C@H](CC(=O)O)NC(=O)[C@H](CC(C)C)NC(=O)[C@H](CO)NC(=O)[C@H](Cc1ccc(O)cc1)NC(=O)[C@H](CC(N)=O)NC(=O)[C@H](Cc1ccccc1)NC(=O)[C@H](CC(N)=O)NC(=O)[C@@H](N)CC(C)C)C(=O)N[C@H](C(=O)N[C@H](C(=O)N[C@@H](CC(=O)O)C(=O)O)C(C)C)[C@@H](C)CC [LNFNYSLDMIIVD] (H-LNFNYSLDMIIVD-OH)	24
CC[C@H](C)[C@H](NC(=O)[C@H](CCCCN)NC(=O)[C@H](CC(=O)O)NC(=O)[C@H](CC(C)C)NC(=O)[C@H](Cc1c[nH]cn1)NC(=O)[C@H](Cc1ccc(O)cc1)NC(=O)[C@H](CC(N)=O)NC(=O)[C@H](Cc1ccccc1)NC(=O)[C@H](CC(N)=O)NC(=O)[C@@H](N)CC(C)C)C(=O)N[C@H](C(=O)N[C@H](C(=O)N[C@@H](CC(=O)O)C(=O)O)C(C)C)[C@@H](C)CC [LNFNYHLDKIIVD] (H-LNFNYHLDKIIVD-OH)	80
CC[C@H](C)[C@H](NC(=O)[C@H](CCCCN)NC(=O)[C@H](CC(=O)O)NC(=O)[C@H](CC(C)C)NC(=O)[C@H](CO)NC(=O)[C@H](Cc1ccc(O)cc1)NC(=O)[C@H](CC(N)=O)NC(=O)[C@H](Cc1ccccc1)NC(=O)[C@H](CC(N)=O)NC(=O)[C@@H](N)CC(C)C)C(=O)N1CCC[C@H]1C(=O)N[C@H](C(=O)N[C@@H](CC(=O)O)C(=O)O)C(C)C [LNFNYSLDKIPVD] (H-LNFNYSLDKIPVD-OH)	1700
CC[C@H](C)[C@H](NC(=O)[C@H](CCCCN)NC(=O)[C@@H]1CCCN1C(=O)[C@H](CC(C)C)NC(=O)[C@H](CO)NC(=O)[C@H](Cc1ccc(O)cc1)NC(=O)[C@H](CC(N)=O)NC(=O)[C@H](Cc1ccccc1)NC(=O)[C@H](CC(N)=O)NC(=O)[C@@H](N)CC(C)C)C(=O)N[C@H](C(=O)N[C@H](C(=O)N[C@@H](CC(=O)O)C(=O)O)C(C)C)[C@@H](C)CC [LNFNYSLPKIIVD] (H-LNFNYSLPKIIVD-OH)	31
CC[C@H](C)[C@H](NC(=O)[C@H](CCCCN)NC(=O)[C@H](CC(=O)O)NC(=O)[C@H](CC(C)C)NC(=O)[C@H](CC(=O)O)NC(=O)[C@H](Cc1ccc(O)cc1)NC(=O)[C@H](CC(N)=O)NC(=O)[C@H](Cc1ccccc1)NC(=O)[C@H](CC(N)=O)NC(=O)[C@@H](N)CC(C)C)C(=O)N[C@H](C(=O)N[C@H](C(=O)N[C@@H](CC(=O)O)C(=O)O)C(C)C)[C@@H](C)CC [LNFNYDLDKIIVD] (H-LNFNYDLDKIIVD-OH)	1040
CC[C@H](C)[C@H](NC(=O)[C@H](CCCCN)NC(=O)[C@H](CC(=O)O)NC(=O)[C@H](CC(C)C)NC(=O)[C@H](CC(N)=O)NC(=O)[C@H](Cc1ccc(O)cc1)NC(=O)[C@H](CC(N)=O)NC(=O)[C@H](Cc1ccccc1)NC(=O)[C@H](CC(N)=O)NC(=O)[C@@H](N)CC(C)C)C(=O)N[C@H](C(=O)N[C@H](C(=O)N[C@@H](CC(=O)O)C(=O)O)C(C)C)[C@@H](C)CC [LNFNYNLDKIIVD] (H-LNFNYNLDKIIVD-OH)	290
